Items are presented alongside their recorded EC50.
target: Opioid Kappa Receptor (recombinant human, HEK293 cells) (Homo sapiens (Human)); assay: cell-based; settings: read-out: EC50
Lab note: write values as number then unit, every time.

Some compounds with known EC50 results, for comparison:
{"COMPOUND": "CC(C)C[C@@H](NC(=O)[C@@H](Cc1ccccc1)NC(=O)[C@H](N)Cc1ccccc1)C(=O)N[C@H](CCCCN)C(=O)N1CCC(NC(=O)CC[C@H](N)C(N)=O)CC1", "EC50": "0.00912 µM"}
{"COMPOUND": "COCCOCCOCCNC(=O)[C@@H](CCCCN)NC(=O)[C@@H](CC(C)C)NC(=O)[C@@H](Cc1ccccc1)NC(=O)[C@H](N)Cc1ccccc1", "EC50": "0.0158 µM"}
{"COMPOUND": "CC(C)C[C@@H](NC(=O)[C@@H](Cc1ccccc1)NC(=O)[C@H](N)Cc1ccccc1)C(=O)N[C@H](CCCCN)C(=O)NCCOCCOCCO", "EC50": "0.0121 µM"}
{"COMPOUND": "CCNC(=O)N1CCN(C(=O)[C@@H](CCCCN)NC(=O)[C@@H](CC(C)C)NC(=O)[C@@H](Cc2ccccc2)NC(=O)[C@H](N)Cc2ccccc2)CC1", "EC50": "0.00291 µM"}
{"COMPOUND": "CC(C)C[C@@H](NC(=O)[C@@H](Cc1ccccc1)NC(=O)[C@H](N)Cc1ccccc1)C(=O)N[C@H](CCCCN)C(=O)N1CCOCCOCCOCC1", "EC50": "0.0515 µM"}

Attention now turns to another entry.
Task: For CC(C)C[C@@H](NC(=O)[C@@H](Cc1ccccc1)NC(=O)[C@H](N)Cc1ccccc1)C(=O)N[C@H](CCCCN)C(=O)N1CCC(NC(=O)[C@@H](N)CC(N)=O)CC1 , what is its reported EC50?
Output: 0.00843 µM

---

molecular target: Opioid Kappa Receptor (recombinant human, HEK293 cells) (Homo sapiens (Human), UniProt P41145); assay: cell-based; settings: read-out: EC50
MEASURED QUANTITY: pEC50
Expect pEC50 as a plain number equal to -log10 of the molar concentration.

Some compounds with known pEC50 results, for comparison:
{"COMPOUND": "CCNC(=O)C(=O)N1CCC(NC(=O)[C@@H](CCCCN)NC(=O)[C@@H](CC(C)C)NC(=O)[C@@H](Cc2ccccc2)NC(=O)[C@H](N)Cc2ccccc2)CC1", "pEC50": 7.42}
{"COMPOUND": "CC(C)C[C@@H](NC(=O)[C@@H](Cc1ccccc1)NC(=O)[C@H](N)Cc1ccccc1)C(=O)N[C@H](CCCCN)C(=O)NC[C@H](N)C(=O)O", "pEC50": 7.05}
{"COMPOUND": "CCOC(=O)C1(N)CCN(C(=O)[C@@H](CCCCN)NC(=O)[C@@H](CC(C)C)NC(=O)[C@@H](Cc2ccccc2)NC(=O)[C@H](N)Cc2ccccc2)C1 (stereo partly shown)", "pEC50": 7.93}
{"COMPOUND": "COC(=O)C1(N)CCN(C(=O)[C@@H](CCCCN)NC(=O)[C@@H](CC(C)C)NC(=O)[C@@H](Cc2ccccc2)NC(=O)[C@H](N)Cc2ccc(F)cc2)CC1", "pEC50": 8.20}
{"COMPOUND": "COC(=O)/C=C/C(=O)N1CCC(NC(=O)[C@@H](CCCCN)NC(=O)[C@@H](CC(C)C)NC(=O)[C@@H](Cc2ccccc2)NC(=O)[C@H](N)Cc2ccccc2)CC1", "pEC50": 7.41}
{"COMPOUND": "CC(=O)N[C@@H](CCC(N)=O)C(=O)NC1CCN(C(=O)[C@@H](CCCCN)NC(=O)[C@@H](CC(C)C)NC(=O)[C@@H](Cc2ccccc2)NC(=O)[C@H](N)Cc2ccccc2)CC1", "pEC50": 7.78}
{"COMPOUND": "CC(C)C[C@@H](NC(=O)[C@@H](Cc1ccccc1)NC(=O)[C@H](N)Cc1ccccc1)C(=O)N[C@H](CCCCN)C(=O)N1CCC(NC(=O)C[C@H](N)C(N)=O)CC1", "pEC50": 8.22}
{"COMPOUND": "CNC(=O)C(=O)NC1CCN(C(=O)[C@@H](CCCCN)NC(=O)[C@@H](CC(C)C)NC(=O)[C@@H](Cc2ccccc2)NC(=O)[C@H](N)Cc2ccccc2)CC1", "pEC50": 7.68}
{"COMPOUND": "CC(C)C[C@@H](NC(=O)[C@@H](Cc1ccccc1)NC(=O)[C@H](N)Cc1ccccc1)C(=O)N[C@H](CCCCN)C(=O)N1CCC(NC(=O)C(=O)N(C)C)CC1", "pEC50": 7.71}

Attention now turns to another entry.
Task: For CC(C)C[C@@H](NC(=O)[C@@H](Cc1ccccc1)NC(=O)[C@H](N)Cc1ccccc1)C(=O)N[C@H](CCCCN)C(=O)N1CCC(NC(=O)C(=O)NC2CC2)CC1 , what is its reported pEC50?
Output: 7.61
